experiment: protein stability index of a GFP-peptide fusion (GPS, HEK-293T) (PSI 1-6); higher = more stable; conditions: treatment: DMSO; c terminus: a fixed tail appended;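 further: 24-mer peptide tiles fused after GFP, lentivirally expressed, FACS-sorted into six equal bins by GFP/DsRed ratio, decoded by Illumina sequencing, PSI is the read-weighted mean bin number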
Below: a set of entries, each annotated with reported protein stability index.

{"residueSequence": "CYLSFPDSNSGCLGDTQFCFRFRQ [DENND6A]", "protein stability index": 2.25}
{"residueSequence": "TLNKCAVMKLEISPHRKRSDDSDE [DLC1]", "protein stability index": 4.11}
{"residueSequence": "PGPSWVRGSGPSVLSRLQDAAVVR [ALKBH7]", "protein stability index": 3.58}
{"residueSequence": "LLLLLLTFFLRTDAETPPRFTRTP [PTPRD]", "protein stability index": 2.32}
{"residueSequence": "YNLSPEADESVLWQLFGPFGAVTN [ELAVL3]", "protein stability index": 2.55}
{"residueSequence": "FIPAHVAFDKKVLKFDAYFQEDVP [EFHC1]", "protein stability index": 2.24}
{"residueSequence": "QNDNAPEILYPALPTDGSTGVELA [PCDHGA10]", "protein stability index": 4.84}
{"residueSequence": "EPPPPGKHSNKKVMRTKSSEKAAN [CPXM2]", "protein stability index": 5.09}
{"residueSequence": "IKRGDILPPEKGREVAKELGLPYY [RHOBTB1]", "protein stability index": 3.2}
{"residueSequence": "GMDDFLGVYSMPAGTKVFEVPEMS [TLE6]", "protein stability index": 3.08}
{"residueSequence": "HVLEGLFRTDPEAKVKLVFVEDQA [ZSWIM9]", "protein stability index": 2.51}
{"residueSequence": "CGKYFQGRGLKSHAYIHSVQFSHH [USP39]", "protein stability index": 2.37}
{"residueSequence": "LVTIARKASLWQFLSSEKQICGTH [TRIM43]", "protein stability index": 2.06}
{"residueSequence": "TGIEGNWGRLLEQVGTMALWASQR [ZBED2]", "protein stability index": 1.98}
{"residueSequence": "AISLTKCLESTKLLADLKKCGDLE [MIA2]", "protein stability index": 2.64}
{"residueSequence": "DSMTSQAKPEALSSPKFREEAAFP [ELOA2]", "protein stability index": 4.9}
{"residueSequence": "ASLSNQECQLYPRRSQQQQVPVVD [SNURF]", "protein stability index": 4.57}
{"residueSequence": "AEHNLVLFRKDVDDATLSRLELER [PRPH]", "protein stability index": 4.45}
{"residueSequence": "IPANVSNCNWFCEGSFNGSEKETM [KRT33B]", "protein stability index": 4.19}
{"residueSequence": "LCGPHAKAPYLCEATHEPAAARIR", "protein stability index": 3.75}
{"residueSequence": "SGAAASLNVDAAVQQWLQKGTPAS [CHIT1]", "protein stability index": 4.12}
{"residueSequence": "SKAKPKPPKQAQKEQRKQMKGRGQ [TBC1D10A]", "protein stability index": 5.02}
{"residueSequence": "RTDLEMQIEGLNEELAYLKKNHEE [KRT15]", "protein stability index": 4.85}
{"residueSequence": "LEKWMQKNVEENLYSSSLGGGVAT [GLT8D2]", "protein stability index": 3.44}
{"residueSequence": "EGEADHSGYAGELGFRAFSGSGNR [UFD1]", "protein stability index": 4.63}
{"residueSequence": "MERTGGIGDSRPPSFHPHAGGGSQ [DVL3]", "protein stability index": 4.5}
{"residueSequence": "NDPSVNSQAQETTIIASNAEEAEI [TOR1AIP2]", "protein stability index": 5.5}
{"residueSequence": "PNPGFSMLDFLSERPWIKRMIFKL [APMAP]", "protein stability index": 2.05}
{"residueSequence": "SWKESSMNIIELEIPDQNIDVEAL [GMCL1]", "protein stability index": 4.26}
{"residueSequence": "SYMRNENVISELNIEDYFSHHLAV [FBXO39]", "protein stability index": 2.26}
{"residueSequence": "LVVALDVDATLEHVQDPQNTVKVQ [INTS4]", "protein stability index": 3.03}
{"residueSequence": "PALDSLAYEYEREGLYEQAFQLLR [TRADD]", "protein stability index": 2.64}
{"residueSequence": "DAIRGKVGYTRGLHVWQITWAMRQ [SPSB1]", "protein stability index": 2.38}
{"residueSequence": "SEEYQQAQHKFLVAVESMEPNNIV [TCF25]", "protein stability index": 4.26}
{"residueSequence": "TFGFITMTPQLFINYKLKSVAHLP [CLPTM1]", "protein stability index": 2.59}
{"residueSequence": "CSEGFLINEDLKTCSRVDYCLLSD [MATN2]", "protein stability index": 2.99}
{"residueSequence": "VVLGSGGVGKSALTVQFVQGIFVE [RAP1B]", "protein stability index": 2.99}
{"residueSequence": "SNMKSRYTTEFHELEKIGSGEFGS [WEE1]", "protein stability index": 3.9}
{"residueSequence": "EKLQKEQKELQDVGQSLRIKEQEV [SASS6]", "protein stability index": 4.79}
{"residueSequence": "KRKMHLVFEYCDHTLLNELERNPN [CDKL4]", "protein stability index": 2.26}
{"residueSequence": "YQELMSLKLALDMEIATYRKLLES [KRT71]", "protein stability index": 2.38}
{"residueSequence": "PKEQLSTSFQWVTKWVDYSNKYGF [PLK2]", "protein stability index": 2.29}
{"residueSequence": "TIENILDNDPRDLIGDFSKGYLFH [CDC25A]", "protein stability index": 2.58}
{"residueSequence": "VDGPDLEMLTGQERVALANRKREC [FKBP8]", "protein stability index": 4.96}
{"residueSequence": "EIPLVIKYKKAVGLKLKQEKKEAY [WDR88]", "protein stability index": 2.88}
{"residueSequence": "PLSSDIQVITQTGVPGQPLNFKAE [PTPRD]", "protein stability index": 4.66}
